The measured values listed here are drawn from PubChem BioAssay AID2060894.

test system: K12877-001-R-J1-PDC complex spheroid viability; test: Anticancer human tumor K12877-001-R-J1-PDC patient-derived lung adenocarcinoma cell line growth inhibition [RAS]; conditions: second compound 0.316 µM; first compound 1 µM; active means viability on the fitted dose curve at most 10% of control; inactive means the rest;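 further: tumour cells co-cultured with HUVEC and mesenchymal stem cells in spheroids; spheroids exposed to agents for one week before readout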
The reply should name one outcome from 1 (active), 0 (inactive)

Ask | Query: recorded result category for CC1(O)CCCC1n1c(=O)c(C(F)F)cc2cnc(NC3CCN(S(C)(=O)=O)CC3)nc21 (centres undefined) + C=CC(=O)N1CCN(c2nc(OCC3CCCN3C)nc3c(F)c(-c4nc(N)cc(C)c4C(F)(F)F)c(Cl)cc23)C(C)C1 in this test
Reply | 0

Ask | Query: recorded result category for CCC(CC)c1cc(NC2CCC(N)C2)n2nccc2n1 (centres undefined) + C=CC(=O)N1CCN(c2nc(OCC3CCCN3C)nc3c(F)c(-c4nc(N)cc(C)c4C(F)(F)F)c(Cl)cc23)C(C)C1 in this test
Reply | 0

Ask | Query: recorded result category for O=C(c1ccc(F)c(F)c1Nc1ccc(I)cc1F)N1CC(O)([C@@H]2CCCCN2)C1 + C#Cc1c(F)ccc2cc(O)cc(-c3ncc4c(N5CC6CCC(C5)N6)nc(OCC56CCCN5CC(F)C6)nc4c3F)c12 in this test
Reply | 0

Continuing:
Ask | Query: recorded result category for CC(Nc1ccc2c(c1)OCCn1cc(N3C(=O)OCC3C(F)F)nc1-2)C(N)=O (centres undefined) + C#Cc1c(F)ccc2cc(O)cc(-c3ncc4c(N5CC6CCC(C5)N6)nc(OCC56CCCN5CC(F)C6)nc4c3F)c12 in this test
Reply | 0

Ask | Query: recorded result category for CC(=O)OC12COC1CC(O)C1(C)C(=O)C(O)C3=C(C)C(OC(=O)C(O)C(NC(=O)OC(C)(C)C)c4ccccc4)CC(O)(C(OC(=O)c4ccccc4)C21)C3(C)C (centres undefined) + C=CC(=O)N1CCN(c2nc(OCC3CCCN3C)nc3c(F)c(-c4nc(N)cc(C)c4C(F)(F)F)c(Cl)cc23)C(C)C1 in this test
Reply | 1

Ask | Query: recorded result category for Cc1nc(N2CCC3(CC2)COC(C)C3N)c(CO)nc1Sc1ccnc(N)c1Cl (centres undefined) + C=CC(=O)N1CCN(c2nc(OCC3CCCN3C)nc3c(F)c(-c4nc(N)cc(C)c4C(F)(F)F)c(Cl)cc23)C(C)C1 in this test
Reply | 0

Ask | Query: recorded result category for CCN1CCN(Cc2ccc(Nc3ncc(F)c(-c4cc(F)c5nc(C)n(C(C)C)c5c4)n3)nc2)CC1 + C=CC(=O)N1CCN(c2nc(OCC3CCCN3C)nc3c(F)c(-c4nc(N)cc(C)c4C(F)(F)F)c(Cl)cc23)C(C)C1 in this test
Reply | 0

Ask | Query: recorded result category for NC1c2ccccc2OC12CCN(c1cnc3c(N4CCCc5ncccc54)n[nH]c3n1)CC2 (centres undefined) + C=CC(=O)N1CCN(c2nc(OCC3CCCN3C)nc3c(F)c(-c4nc(N)cc(C)c4C(F)(F)F)c(Cl)cc23)C(C)C1 in this test
Reply | 0

Ask | Query: recorded result category for CC(C)NCC(C(=O)N1CCN(c2ncnc3c2C(C)CC3O)CC1)c1ccc(Cl)cc1 (centres undefined) + C=CC(=O)N1CCN(c2nc(OCC3CCCN3C)nc3c(F)c(-c4nc(N)cc(C)c4C(F)(F)F)c(Cl)cc23)C(C)C1 in this test
Reply | 0

Ask | Query: recorded result category for C=CC(=O)N1CCN(c2nc(OCC3CCCN3C)nc3c(F)c(-c4nc(N)cc(C)c4C(F)(F)F)c(Cl)cc23)C(C)C1 (centres undefined) + C#Cc1c(F)ccc2cc(O)cc(-c3ncc4c(N5CC6CCC(C5)N6)nc(OCC56CCCN5CC(F)C6)nc4c3F)c12 in this test
Reply | 0

Ask | Query: recorded result category for CC(=O)OC12COC1CC(O)C1(C)C(=O)C(O)C3=C(C)C(OC(=O)C(O)C(NC(=O)OC(C)(C)C)c4ccccc4)CC(O)(C(OC(=O)c4ccccc4)C21)C3(C)C (centres undefined) + C#Cc1c(F)ccc2cc(O)cc(-c3ncc4c(N5CC6CCC(C5)N6)nc(OCC56CCCN5CC(F)C6)nc4c3F)c12 in this test
Reply | 1
